Target: NKX2-5 transcriptional activity (Mus musculus, UniProt P42582)
Construct: expressed in transfected cells; host or cells: COS-1
Sequence (P42582 whole entry): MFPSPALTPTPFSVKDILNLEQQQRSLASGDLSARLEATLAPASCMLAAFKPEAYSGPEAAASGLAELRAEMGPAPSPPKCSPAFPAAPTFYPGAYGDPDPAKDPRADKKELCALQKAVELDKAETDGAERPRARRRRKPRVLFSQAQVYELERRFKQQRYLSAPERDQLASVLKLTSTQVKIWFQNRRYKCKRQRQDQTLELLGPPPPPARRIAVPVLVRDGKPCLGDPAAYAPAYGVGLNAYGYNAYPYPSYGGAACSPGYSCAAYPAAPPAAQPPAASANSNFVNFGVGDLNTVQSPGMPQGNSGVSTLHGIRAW
Assay: NKX2-5 luciferase reporter assay (3xNKE reporter, COS-1 cells)
Assay type: cell-based
Conditions: COS-1; compound 3 µM; luciferase reporter activity; spread in separate STDEV column; read-out: NKX.3µM
RESULT TYPE: activity at 3 µM (%)

1) CCN(CC)c1ccc(NC(=O)c2cn(C)nc2-c2cc(C)on2)cc1 [Compound 47f] = 108
2) CCN(CC)c1ccc(NC(=O)c2c(-c3cc(C)on3)noc2C)cc1 [Compound 39o] = 101
3) Cc1onc(-c2ccccc2)c1C(=O)Nc1ccc(C(=O)OCCCC#N)cc1 [Compound 10b] = 105
4) CCN(CC)c1ccc(NC(=O)c2cn(C)cc2-c2cc(C)on2)cc1 [Compound 47m] = 116
5) CCN(CC)c1ccc(NC(=O)c2cc(C)oc2-c2cc(C)on2)cc1 [Compound 47h] = 114
6) CN(C)c1ccc(CNc2cc(-c3ccccc3)nn2-c2ccccc2)cc1 = 95.3
7) CCN(CC)c1ccc(NC(=O)c2c(-c3ccc(C)s3)noc2C)cc1 [Compound 39p] = 83.8
8) COc1ccc(-c2cc(NCc3ccc(N(C)C)cc3)n[nH]2)cc1 = 84
9) Cc1onc(-c2ccccc2)c1C(=O)Nc1ccc(C(=O)OCCC#N)cc1 = 132
10) Cc1onc(-c2ccccc2)c1C(=O)Nc1nc(C(C)(C)C)cs1 = 97.7
11) Cc1onc(-c2ccccc2)c1C(=O)Nc1ccc(C(=O)OCCCCC#N)cc1 [Compound 10c] = 102
